The following molecules are shown together with reported Rabbit % P.A. Inhibition (ex vivo) values.
Tested on: platelet rich plasma (PRP)
Experiment: Rabbit ex-vivo platelet aggregation (XPA), ADP-induced
Format: in vivo
Conditions: Example 1
Where a SMILES comes first, the peptide text is derived from it. Bridges are numbered along the chain shown (N, C = ends). [ ]: non-standard residue; d: D form. Aad = N[C@@H](CCCC(=O)O)C(=O)O; Pen = CC(C)(S)[C@H](N)C(=O)O; Orn = NCCC[C@H](N)C(=O)O
metric name: Rabbit % P.A. Inhibition (ex vivo) (%)

molecule: CC1(C)SCC(=O)N[C@H](Cc2ccc(O)cc2)C(=O)N[C@@H](CCCCN)C(=O)NCC(=O)N[C@@H](CC(=O)O)C(=O)N[C@@H]1C(=O)N[C@@H](CCCCN)C(N)=O [7/17] ({CH2CO}-[dY]KGD[Pen]K-NH2; thioether N-5)
target entity: platelet rich plasma (PRP)
obs value: 100

molecule: N=C(N)NCCC[C@@H]1NC(=O)[C@@H](Cc2ccc(O)cc2)NC(=O)CCC[C@@H](C(=O)N[C@@H](CCCCN)C(N)=O)NC(=O)[C@H](CC(=O)O)NC(=O)CNC1=O [10/20] ([dY]RGD[Aad]K-NH2; lactam N-5)
target entity: platelet rich plasma (PRP)
obs value: 100

molecule: N=C(N)NCCC[C@@H]1NC(=O)[C@@H](Cc2ccc(O)cc2)NC(=O)C(CCCCN)SC[C@@H](C(=O)O)NC(=O)[C@H](CC(=O)O)NC(=O)CNC1=O (single isomer, unassigned)
target entity: platelet rich plasma (PRP)
obs value: 100

molecule: N=C(N)NCCC[C@H](NC(=O)[C@@H]1CSCC(=O)N[C@H](Cc2ccc(O)cc2)C(=O)N[C@@H](CCCNC(=N)N)C(=O)NCC(=O)N[C@@H](CC(=O)O)C(=O)N1)C(N)=O [7/1] ({CH2CO}-[dY]RGDCR-NH2; thioether N-5)
target entity: platelet rich plasma (PRP)
obs value: 100

molecule: N=C(N)NCCC[C@@H]1NC(=O)[C@@H](Cc2ccc(O)c(Br)c2)NC(=O)C[S+]([O-])C[C@@H](C(=O)N[C@@H](CCCCN)C(N)=O)NC(=O)[C@H](CC(=O)O)NC(=O)CNC1=O (single isomer, unassigned)
target entity: platelet rich plasma (PRP)
obs value: 91

molecule: N=C(N)NCCC[C@H](NC(=O)[C@H](Cc1ccc(O)cc1)NC(=O)[C@@H]1CSCC(=O)N[C@H](Cc2ccc(O)cc2)C(=O)N[C@@H](CCCNC(=N)N)C(=O)NCC(=O)N[C@@H](CC(=O)O)C(=O)N1)C(N)=O [7/7] ({CH2CO}-[dY]RGDCYR-NH2; thioether N-5)
target entity: platelet rich plasma (PRP)
obs value: 98

molecule: N=C(N)NCCC[C@H](NC(=O)[C@@H]1C[S+]([O-])CC(=O)N[C@H](Cc2ccc(O)cc2)C(=O)N[C@@H](CCCNC(=N)N)C(=O)NCC(=O)N[C@@H](CC(=O)O)C(=O)N1)C(N)=O (single isomer, unassigned)
target entity: platelet rich plasma (PRP)
obs value: 99

molecule: N=C(N)NCCC[C@@H]1NC(=O)[C@@H](Cc2ccc(O)cc2)NC(=O)CSC[C@@H](C(=O)N[C@@H](CCCN)C(N)=O)NC(=O)[C@H](CC(=O)O)NC(=O)CNC1=O [7/5] ({CH2CO}-[dY]RGDC[Orn]-NH2; thioether N-5)
target entity: platelet rich plasma (PRP)
obs value: 100

###

The following molecules are shown together with reported Rabbit % P.A. Inhibition (ex vivo) values.
Test system: platelet rich plasma (PRP)
Test: Rabbit ex-vivo platelet aggregation (XPA), ADP-induced
Format: in vivo
Conditions: Example 1
Where a SMILES comes first, the peptide text is derived from it. Bridges are numbered along the chain shown (N, C = ends). [ ]: non-standard residue; d: D form. Pen = CC(C)(S)[C@H](N)C(=O)O

molecule: CC1(C)SCC(=O)N[C@H](Cc2ccc(O)cc2)C(=O)N[C@@H](CCCCN)C(=O)NCC(=O)N[C@@H](CC(=O)O)C(=O)N[C@@H]1C(=O)O [7/47] ({CH2CO}-[dY]KGD[Pen]-OH; thioether N-5)
target entity: platelet rich plasma (PRP)
Rabbit % P.A. Inhibition (ex vivo): 96%
//
molecule: N=C(N)NCCC[C@@H]1NC(=O)[C@@H](Cc2ccc(O)cc2)NC(=O)CSC[C@@H](C(=O)N[C@@H](CCCCN)C(N)=O)NC(=O)[C@H](CC(=O)O)NC(=O)CNC1=O [7/3] ({CH2CO}-[dY]RGDCK-NH2; thioether N-5)
target entity: platelet rich plasma (PRP)
Rabbit % P.A. Inhibition (ex vivo): 97%
//
molecule: N=C(N)NCCC[C@@H]1NC(=O)[C@@H](Cc2ccc(O)cc2)NC(=O)C[S+]([O-])C[C@@H](C(=O)N[C@H](CCCNC(=N)N)C(N)=O)NC(=O)[C@H](CC(=O)O)NC(=O)CNC1=O (single isomer, unassigned)
target entity: platelet rich plasma (PRP)
Rabbit % P.A. Inhibition (ex vivo): 64%

###

The following compounds are shown together with reported IC50 values.
Target: Fibronectin Receptor (Homo sapiens, UniProt P05556+P08648)
Sequence (P08648 42-894 limits assumed): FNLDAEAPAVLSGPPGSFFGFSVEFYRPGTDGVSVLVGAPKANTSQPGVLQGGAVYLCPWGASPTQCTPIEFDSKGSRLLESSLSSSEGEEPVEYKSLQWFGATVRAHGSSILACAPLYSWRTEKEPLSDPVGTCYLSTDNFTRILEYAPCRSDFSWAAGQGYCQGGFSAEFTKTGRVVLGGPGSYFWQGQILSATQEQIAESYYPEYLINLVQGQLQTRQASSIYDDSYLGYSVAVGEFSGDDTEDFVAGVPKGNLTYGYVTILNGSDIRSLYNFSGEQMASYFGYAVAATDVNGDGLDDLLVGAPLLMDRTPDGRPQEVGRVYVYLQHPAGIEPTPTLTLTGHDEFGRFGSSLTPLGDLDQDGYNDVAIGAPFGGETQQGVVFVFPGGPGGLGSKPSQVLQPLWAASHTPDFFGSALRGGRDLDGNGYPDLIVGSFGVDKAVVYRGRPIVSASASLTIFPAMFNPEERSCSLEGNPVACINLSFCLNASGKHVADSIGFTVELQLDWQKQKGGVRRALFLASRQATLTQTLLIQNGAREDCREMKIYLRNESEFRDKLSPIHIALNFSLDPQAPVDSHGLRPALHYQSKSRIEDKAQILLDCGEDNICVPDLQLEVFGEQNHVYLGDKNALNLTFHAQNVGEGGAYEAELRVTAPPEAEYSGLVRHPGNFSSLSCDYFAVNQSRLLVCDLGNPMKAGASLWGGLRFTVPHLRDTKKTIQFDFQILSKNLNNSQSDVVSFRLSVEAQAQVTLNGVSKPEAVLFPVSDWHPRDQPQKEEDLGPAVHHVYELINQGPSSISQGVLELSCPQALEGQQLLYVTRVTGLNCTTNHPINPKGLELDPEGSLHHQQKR
Sequence (P08648 895-1049 partner limits assumed): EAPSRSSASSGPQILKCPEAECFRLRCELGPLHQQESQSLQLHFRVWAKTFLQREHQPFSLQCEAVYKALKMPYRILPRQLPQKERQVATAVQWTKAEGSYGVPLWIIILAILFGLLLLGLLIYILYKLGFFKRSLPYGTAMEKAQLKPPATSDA
Sequence (P05556 21-798): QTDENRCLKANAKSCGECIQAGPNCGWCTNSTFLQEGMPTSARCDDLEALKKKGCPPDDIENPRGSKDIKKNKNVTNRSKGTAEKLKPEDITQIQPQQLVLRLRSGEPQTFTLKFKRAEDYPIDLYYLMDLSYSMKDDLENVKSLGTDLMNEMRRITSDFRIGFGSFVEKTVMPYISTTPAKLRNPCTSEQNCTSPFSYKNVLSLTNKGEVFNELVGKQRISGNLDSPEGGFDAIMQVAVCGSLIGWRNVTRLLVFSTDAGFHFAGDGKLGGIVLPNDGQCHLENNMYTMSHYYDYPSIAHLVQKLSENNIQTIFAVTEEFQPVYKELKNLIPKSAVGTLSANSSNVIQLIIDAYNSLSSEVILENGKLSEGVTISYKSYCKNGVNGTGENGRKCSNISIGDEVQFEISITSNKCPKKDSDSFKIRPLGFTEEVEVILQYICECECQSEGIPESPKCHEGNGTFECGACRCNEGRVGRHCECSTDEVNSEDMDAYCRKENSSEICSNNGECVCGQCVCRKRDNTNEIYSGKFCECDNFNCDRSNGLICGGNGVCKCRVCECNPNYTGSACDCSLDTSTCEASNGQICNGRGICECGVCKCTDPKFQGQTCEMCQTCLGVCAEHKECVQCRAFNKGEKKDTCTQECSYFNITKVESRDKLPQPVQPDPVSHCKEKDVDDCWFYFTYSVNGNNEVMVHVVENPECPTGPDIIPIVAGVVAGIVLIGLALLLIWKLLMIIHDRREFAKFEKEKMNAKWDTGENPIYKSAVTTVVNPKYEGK
Test: Human Fibronectin-Fibronectin Receptor ELISA Assay
Format: binding
Design: octylglucoside (OG) extracted human placenta; from tissue; host or cells: human placenta
Settings: human placenta fibronectin receptor, fibronectin-coated plates; read-out: ELISA IC50 Fibronectin FnR
Method: Fibronectin receptor is purified according to the procedures of Pytela et al., (Methods Enzymol. 144:475 […]). Briefly, fibronectin receptor is purified employing an Arg-Gly-Asp affinity chromatography from (100 mM) octylglucoside (OG) extracted human placenta. […] Microtiter plates are coated with 110 μl human fibronectin (at 2 μg/ml) in TBS. […] The development process is stopped by adding 50 μl of 4N H2 SO4 to each well and read at […].
*1 amine or outer side, *2 acyl side, *3 side chain or, on linkers, in order; H or OH if unused. Where a SMILES comes first, the peptide text is derived from it. Bridges are numbered along the chain shown (N, C = ends). [ ]: non-standard residue; d: D form. The star is where a group is joined. Ethylenediamine = C(CN[*:2])N[*:1]; Aad = N[C@@H](CCCC(=O)O)C(=O)O; Pen = CC(C)(S)[C@H](N)C(=O)O; dOrn = NCCC[C@@H](N)C(=O)O; Orn = NCCC[C@H](N)C(=O)O; NH(CH2)5NH2 = NCCCCCN*

compound: NCCCC[C@@H]1NC(=O)[C@@H](Cc2ccc(O)cc2)NC(=O)C(c2ccccc2)SC[C@@H](C(=O)O)NC(=O)[C@H](CC(=O)O)NC(=O)CNC1=O (single isomer, unassigned)
value relation sign: >
IC50, nM: 10000
--
compound: N=C(N)NCCC[C@@H]1NC(=O)[C@@H](Cc2ccc(O)cc2)NC(=O)CSC[C@@H](C(=O)N[C@@H](CCCN)C(N)=O)NC(=O)[C@H](CC(=O)O)NC(=O)CNC1=O [7/5] ({CH2CO}-[dY]RGDC[Orn]-NH2; thioether N-5)
value relation sign: =
IC50, nM: 63
--
compound: N=C(N)NCCC[C@@H]1NC(=O)[C@@H](Cc2ccc(O)cc2)NC(=O)CSC[C@@H](C(=O)N[C@H](CCCCN)C(N)=O)NC(=O)[C@H](CC(=O)O)NC(=O)CNC1=O [7/4] ({CH2CO}-[dY]RGDC[dK]-NH2; thioether N-5)
value relation sign: =
IC50, nM: 66
--
compound: N=C(N)NCCC[C@@H]1NC(=O)[C@@H](Cc2ccc(O)cc2)NC(=O)C(CCCCN)SC[C@@H](C(=O)O)NC(=O)[C@H](CC(=O)O)NC(=O)CNC1=O (single isomer, unassigned) [9/10]
value relation sign: =
IC50, nM: 2
--
compound: N=C(N)NCCC[C@@H]1NC(=O)[C@@H](Cc2ccc(O)cc2)NC(=O)CSC[C@@H](C(=O)NCCN)NC(=O)[C@H](CC(=O)O)NC(=O)CNC1=O [8/23] ({CH2CO}-[dY]RGDC-Ethylenediamine; thioether N-5)
value relation sign: =
IC50, nM: 61
--
compound: N=C(N)NCCC[C@@H]1NC(=O)[C@@H](Cc2ccc(O)cc2)NC(=O)CSC[C@@H](C(=O)N[C@@H](CCCCN)C(N)=O)NC(=O)[C@H](CC(=O)O)NC(=O)CNC1=O [7/3] ({CH2CO}-[dY]RGDCK-NH2; thioether N-5)
value relation sign: =
IC50, nM: 201
--
compound: N=C(N)NCCC[C@H](NC(=O)[C@@H]1CCCC(=O)N[C@H](Cc2ccc(O)cc2)C(=O)N[C@@H](CCCNC(=N)N)C(=O)NCC(=O)N[C@@H](CC(=O)O)C(=O)N1)C(N)=O [10/19] ([dY]RGD[Aad]R-NH2; lactam N-5)
value relation sign: =
IC50, nM: 745
--
compound: N=C(N)NCCC[C@@H]1NC(=O)[C@@H](Cc2ccc(O)cc2)NC(=O)CCC[C@@H](C(=O)N[C@@H](CCCCN)C(N)=O)NC(=O)[C@H](CC(=O)O)NC(=O)CNC1=O [10/20] ([dY]RGD[Aad]K-NH2; lactam N-5)
value relation sign: =
IC50, nM: 2310
--
compound: N=C(N)NCCC[C@H](NC(=O)[C@H](Cc1ccc(O)cc1)NC(=O)[C@@H]1CSCC(=O)N[C@H](Cc2ccc(O)cc2)C(=O)N[C@@H](CCCNC(=N)N)C(=O)NCC(=O)N[C@@H](CC(=O)O)C(=O)N1)C(N)=O [7/7] ({CH2CO}-[dY]RGDCYR-NH2; thioether N-5)
value relation sign: =
IC50, nM: 27
--
compound: N=C(N)NCCC[C@@H]1NC(=O)[C@@H](Cc2ccc(O)cc2)NC(=O)CSC[C@@H](C(=O)N[C@H](CCCN)C(N)=O)NC(=O)[C@H](CC(=O)O)NC(=O)CNC1=O [7/6] ({CH2CO}-[dY]RGDC[dOrn]-NH2; thioether N-5)
value relation sign: =
IC50, nM: 161
--
compound: CC1(C)SCC(=O)N[C@H](Cc2ccc(O)cc2)C(=O)N[C@@H](CCCCN)C(=O)NCC(=O)N[C@@H](CC(=O)O)C(=O)N[C@@H]1C(=O)N[C@@H](CCCNC(=N)N)C(N)=O [7/16] ({CH2CO}-[dY]KGD[Pen]R-NH2; thioether N-5)
value relation sign: >
IC50, nM: 10000
--
compound: N=C(N)NCCC[C@@H]1NC(=O)[C@@H](Cc2ccc(O)cc2)NC(=O)CSC[C@@H](C(=O)NCCCCCN)NC(=O)[C@H](CC(=O)O)NC(=O)CNC1=O [8/13] ({CH2CO}-[dY]RGDC-{NH(CH2)5NH2}; thioether N-5)
value relation sign: =
IC50, nM: 473
--
compound: N=C(N)NCCC[C@H](NC(=O)[C@@H]1CSCC(=O)N[C@H](Cc2ccc(O)cc2)C(=O)N[C@@H](CCCNC(=N)N)C(=O)NCC(=O)N[C@@H](CC(=O)O)C(=O)N1)C(N)=O [7/1] ({CH2CO}-[dY]RGDCR-NH2; thioether N-5)
value relation sign: =
IC50, nM: 57
--
compound: N=C(N)NCCC[C@@H]1NC(=O)[C@@H](Cc2ccc(O)cc2)NC(=O)CSC[C@@H](C(=O)O)NC(=O)[C@H](CC(=O)O)NC(=O)CNC1=O [7/46] ({CH2CO}-[dY]RGDC-OH; thioether N-5)
value relation sign: =
IC50, nM: 3390

Values compiled from patent US5493007A.
